Tested on: PDC 899932-113-R3-J6 complex spheroid viability;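 also: spheroids exposed to agents for seven days before readout; 100% = DMSO vehicle control wells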
PROCEDURE_SUMMARY: Anticancer human tumor 899932-113-R3-J6-PDC patient-derived melanoma cell line growth inhibition [RAS]
RUN_PARAMETERS: second compound 0.003 µM; first compound 0.0316 µM; stronger effect = lower value
OBSERVATION_TYPE: viability, T/C (%)

INSERT INTO results (compound, uom, reported) VALUES
  ('Cc1nc(N2CCC3(CC2)COC(C)C3N)c(CO)nc1Sc1ccnc(N)c1Cl (centres undefined) + CCn1c(-c2cc(N3CCN(C)CC3)cnc2C(C)OC)c2c3cc(ccc31)-c1csc(n1)CC(NC(=O)C1CC1C)C(=O)N1CCCC(N1)C(=O)OCC(C)(C)C2', '%', 29.8),
  ('C[C@@H](NC(=O)c1ncnc(N)c1Cl)c1ncc(C(=O)Nc2cc(C(F)(F)F)c(Cl)cn2)s1 + CCn1c(-c2cccnc2C(C)OC)c2c3cc(ccc31)N1CCOC(CC(NC(=O)C(C(C)C)N(C)C(=O)C3(F)CCN(C(=O)C#CC(C)(C)N(C)C)CC3)C(=O)N3CCCC(N3)C(=O)OCC(C)(C)C2)C1', '%', 122),
  ('C=CC(=O)N1CCN(c2nc(OCC3CCCN3C)nc3c(F)c(-c4nc(N)cc(C)c4C(F)(F)F)c(Cl)cc23)C(C)C1 (centres undefined) + CCn1c(-c2cc(N3CCN(C)CC3)cnc2C(C)OC)c2c3cc(ccc31)-c1csc(n1)CC(NC(=O)C1CC1C)C(=O)N1CCCC(N1)C(=O)OCC(C)(C)C2', '%', 36.5),
  ('C=CC(=O)N1CCN(c2nc(OCC3CCCN3C)nc3c(F)c(-c4nc(N)cc(C)c4C(F)(F)F)c(Cl)cc23)C(C)C1 (centres undefined) + CCn1c(-c2cccnc2C(C)OC)c2c3cc(ccc31)N1CCOC(CC(NC(=O)C(C(C)C)N(C)C(=O)C3(F)CCN(C(=O)C#CC(C)(C)N(C)C)CC3)C(=O)N3CCCC(N3)C(=O)OCC(C)(C)C2)C1', '%', 105);
